Biological target: T1, 4H363-bH
T1 chain: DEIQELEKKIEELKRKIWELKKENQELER
Assay: two-hybrid library CCNG1;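 note: natural log of median RNA to DNA barcode read ratio; higher means stronger binding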
// reported interaction score per item
assay_readout: interaction score

[[record]]
binder = "DKIQELKKEIEELERKNWELKKENQELER [4H2619-bH]"
assay_readout = "interaction score"
observed_result = 0.722

[[record]]
binder = "DEIQELEKKIEELKRENWELEKKNQELKR [4H344-bH]"
assay_readout = "interaction score"
observed_result = 0.49

[[record]]
binder = "DKIQELKKEIEELEREIWELEKKNQELKR [4H2568-bH]"
assay_readout = "interaction score"
observed_result = 1.72

[[record]]
binder = "DENQELEKEIEELERENWELEKKIQELKR [4H1046-bH]"
assay_readout = "interaction score"
observed_result = -1.16

[[record]]
binder = "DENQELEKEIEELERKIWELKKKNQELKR [4H1072-bH]"
assay_readout = "interaction score"
observed_result = 0.487

[[record]]
binder = "DEIQELEKKIEELKRKIWELKKENQELER [4H363-bH]"
assay_readout = "interaction score"
observed_result = 1.36

[[record]]
binder = "DKIQELKKENEELERKNWELKKEIQELER [4H2745-bH]"
assay_readout = "interaction score"
observed_result = -0.763


Data origin, for the record: paper PMC10397247
